// provenance: patent US20230278998A1

This listing pairs compounds with measured pIC50.
Molecular target: PARG (389-976) (Homo sapiens (Human), UniProt Q86W56)
Sequence (Q86W56 389-976): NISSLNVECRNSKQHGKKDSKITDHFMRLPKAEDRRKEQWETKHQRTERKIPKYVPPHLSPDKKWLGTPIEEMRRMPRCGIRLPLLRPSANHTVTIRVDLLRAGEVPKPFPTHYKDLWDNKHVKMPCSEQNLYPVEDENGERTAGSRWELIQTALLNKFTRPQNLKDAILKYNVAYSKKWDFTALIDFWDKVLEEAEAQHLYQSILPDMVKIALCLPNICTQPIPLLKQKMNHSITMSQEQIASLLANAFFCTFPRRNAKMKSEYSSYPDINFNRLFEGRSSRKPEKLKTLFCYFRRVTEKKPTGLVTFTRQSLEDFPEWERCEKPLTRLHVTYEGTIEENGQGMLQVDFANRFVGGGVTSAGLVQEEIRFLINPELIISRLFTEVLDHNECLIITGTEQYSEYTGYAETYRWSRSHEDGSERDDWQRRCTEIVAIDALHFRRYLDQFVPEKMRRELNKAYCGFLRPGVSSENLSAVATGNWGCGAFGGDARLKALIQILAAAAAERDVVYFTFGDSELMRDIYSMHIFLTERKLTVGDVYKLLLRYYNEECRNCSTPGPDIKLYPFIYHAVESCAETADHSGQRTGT
Experiment: PARG enzyme inhibition assay (TR-FRET)
Type: biochemical
Settings: Table 3, class symbol
pIC50: −log10 of the molar value.

Name the recorded pIC50 for Cn1nc(-c2nnc(C(F)F)s2)c2cc(S(=O)(=O)NC3(C#N)CC3)cc(-c3ccc(C(=O)N4CCCC4)cc3)c21 [Compound 135] .
> 7.00

Requested field: pIC50. Item: C[C@H](O)C(=O)N1CCN(c2cc(S(=O)(=O)NC3(C#N)CC3)cc3c(-c4nnc(C(F)F)s4)nn(CC(F)(F)F)c23)CC1 [Compound 110]
> 7.00

Any idea what its pIC50 is? The compound is CC(C)C(=O)N1CCN(c2cc(S(=O)(=O)NC3(C)CC3)cc3c(-c4nnc(C(F)F)s4)nn(C)c23)C[C@@H]1C [Compound 82]
> 7.00

Which pIC50 is listed for CCn1nc(-c2nnc(C(F)F)s2)c2cc(S(=O)(=O)NC3(C#N)CC3)cc(N3C4CCC3CN(C(=O)C(C)C)C4)c21 [Compound 94] ?
> 7.00

Given the entry CC(C)(O)C1CCN(c2cc(S(=O)(=O)NC3(C#N)CC3)cc3c(-c4nnc(C(F)F)s4)nn(CC(F)(F)F)c23)CC1 [Compound 105] , report its measured pIC50.
> 7.00

---
Look at this compound and give its reported pIC50. CC(C)C(=O)N1CCN(c2cc(S(=O)(=O)NC3(C#N)CC3)cc3c(-c4nnc(C(F)F)s4)nn(C)c23)C[C@H]1C [Compound 69]
> 7.00

I'd like to know its pIC50. The compound in question is CC(C)S(=O)(=O)N1CC=C(c2cc(S(=O)(=O)NC3(C#N)CC3)cc3c(-c4nnc(C(F)F)s4)nn(C)c23)CC1 [Compound 141]
> 7.00

Looking for the measured pIC50 of C[C@H](N)C(=O)N1CC=C(c2cc(S(=O)(=O)NC3(C#N)CC3)cc3c(-c4nnc(C(F)F)s4)nn(C)c23)CC1 [Compound 81] , can you help?
> 7.00

Entry under review: CC(C)C(=O)N1C2C=C(c3cc(S(=O)(=O)NC4(C#N)CC4)cc4c(-c5nnc(C(F)F)s5)nn(C)c34)CC1CCC2 (stereo not shown) [Compound 83] . Reported pIC50?
> 7.00

Which pIC50 value is on record for CCn1nc(-c2nnc(C(F)F)s2)c2cc(S(=O)(=O)NC3(C)CC3)cc(N3CCN(C(=O)C(C)C)[C@@H](C)C3)c21 [Compound 92] ?
> 7.00

What measured pIC50 goes with CN(C)C(=O)c1ccc(-c2cc(S(=O)(=O)NC3(C#N)CC3)cc3c(-c4nnc(C(F)F)s4)nn(C)c23)cc1 [Compound 132] ?
> 7.00

Query: pIC50; subject: CC(C)C(=O)N1CCN(c2cc(S(=O)(=O)NC3(C#N)CC3)cc3c(-c4nnc(C(F)F)s4)nn(CC(F)(F)F)c23)C[C@H]1C [Compound 109]
> 7.00

Param item = Cn1nc(-c2nnc(C(F)F)s2)c2cc(S(=O)(=O)NC3(C#N)CC3)cc(N3CCC(C(C)(C)O)CC3)c21 [Compound 76] ; retrieve measured pIC50.
> 7.00
